Target: recombinant human FGFR1 catalytic domain (amino acids 308-731) (Homo sapiens (Human), UniProt P11362)
Sequence (P11362 other isoform, or with tags, fused parts or gaps): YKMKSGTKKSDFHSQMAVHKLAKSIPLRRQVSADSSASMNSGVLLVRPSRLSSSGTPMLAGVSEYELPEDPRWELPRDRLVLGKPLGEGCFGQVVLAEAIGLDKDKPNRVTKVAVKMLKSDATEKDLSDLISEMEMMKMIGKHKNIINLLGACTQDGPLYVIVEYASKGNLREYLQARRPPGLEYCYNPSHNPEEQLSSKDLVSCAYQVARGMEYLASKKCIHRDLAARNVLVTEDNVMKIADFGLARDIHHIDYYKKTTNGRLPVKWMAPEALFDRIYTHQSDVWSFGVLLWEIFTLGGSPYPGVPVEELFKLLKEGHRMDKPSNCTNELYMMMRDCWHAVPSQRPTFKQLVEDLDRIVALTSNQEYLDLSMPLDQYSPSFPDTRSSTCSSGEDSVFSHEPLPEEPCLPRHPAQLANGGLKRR
Test: FGFR1 enzyme activity assay (LanthaScreen TR-FRET)
Details: 20 min incubation at 22° C., average of multiple determinations if made, read-out: FGFR1 Enz FRET IC50
Friendly reminder: IC50 below 10 nM is 1.0, at or above is 0.0.

Use the examples below as a reference point.
Prompt: Does the reported IC50 of "C=CC(=O)Nc1ccc(C(=O)N2CC[C@H](n3cc(-c4cc(OC)c5c(C#N)cnn5c4)cn3)C2)c(OC)c1" stay below 10 nM?
Completion: 0.0

Prompt: Consider the compound "COc1cc(-c2cnn(C3CCN(C(=O)C4CN(C(=O)/C=C/CN5CCCCC5)C4)CC3)c2)cn2ncc(C#N)c12" . Is its IC50 strictly less than 10 nM?
Completion: 1.0

Prompt: Record "COc1cc(-c2cnn(C3CCN(C(=O)C4CN(C(=O)/C=C/CN5CC[C@H](F)C5)C4)CC3)c2)cn2ncc(C#N)c12" : is its IC50 strictly below 10 nM?
Completion: 0.0

Prompt: I'd appreciate it if you could check whether "C=CC(=O)N1C2COCC1CN(C(=O)N1CCC(n3cc(-c4cc(OC)c5c(C#N)cnn5c4)cn3)CC1)C2" has IC50 smaller than 10 nM.
Completion: 1.0

Prompt: Field: below-cutoff. Rule: recorded IC50 strictly less than 10 nM. Subject: "C=CC(=O)Nc1cccc(C(=O)N2CC[C@H](n3cc(-c4cc(OC)c5c(C#N)cnn5c4)cn3)C2)c1"
Completion: 1.0

Prompt: Is IC50 of "COc1cc(-c2nn(C3CCN(C(=O)C4(F)CN(C(=O)/C=C/CN(C)C)C4)CC3)nc2C)cn2ncc(C#N)c12" strictly below 10 nM?
Completion: 0.0

# evaluate next
Prompt: In the record for "C=CC(=O)N1CC(CN2CCC(n3ncc(-c4cc(OC)c5c(Cl)cnn5c4)c3C)CC2)C1" , is IC50 less than 10 nM?
Completion: 0.0
